The measured values listed here are drawn from the supplement of paper PMC11061612.

Tested on: KU-19-19 (Bladder Carcinoma)
procedure.details: combination Emax (second highest fraction inhibited in the dose matrix, 72 h); higher = more inhibition; extreme values may be limits of the assay
measure.name: combination Emax

The examples below pair each entry with its known result.
• COc1nnc2ccc(N3CCC(c4ccc(OCCN5CCN(C)C(=O)[C@H]5C)cc4)CC3)nn12 [AZD5153] + CN(CC[C@H](CSC1=CC=CC=C1)NC2=C(C=C(C=C2)S(=O)(=O)NC(=O)C3=CC=C(C=C3)N4CCC(CC4)[C@H](C5=CC=CC=C5C6=CC=C(C=C6)Cl)O)S(=O)(=O)C(F)(F)F)CCO [AZD4320] (first compound max 1 µM, 7x7, partner max 1 µM) = 0.755
• Cc1c2c(nn1C)CSCc1cc(n(C)n1)CSc1cc(c3ccccc3c1)OCCCc1c(C(=O)O)n(C)c3c-2c(Cl)ccc13 [AZD5991] + C[C@@H](Nc1cc(F)cc(F)c1)c1cc(C(=O)N(C)C)cc2c(=O)cc(N3CCOCC3)oc12 [AZD8186] (first compound max 1 µM, 7x7, partner max 3 µM) = 0.212
• CN(CCO)CC[C@H](CSc1ccccc1)Nc1ccc(S(=O)(=O)NC(=O)c2ccc(N3CCC([C@@H](O)c4ccccc4-c4ccc(Cl)cc4)CC3)cc2)cc1S(=O)(=O)C(F)(F)F [AZD4320] + CCN(CCO)CCCOc1ccc2c(Nc3cc(CC(=O)Nc4cccc(F)c4)[nH]n3)ncnc2c1 [AZD2811] (first compound max 1 µM, 7x7, partner max 1 µM) = 0.498
• CN(C)CCCOc1ccc(-c2ccc3ncc4c(c3c2)n(C2CCOCC2)c(=O)n4C)cn1 [AZD0156] + C[C@@H]1COCCN1C2=NC(=NC(=C2)C3(CC3)[S@](=N)(=O)C)C4=C5C=CNC5=NC=C4 [AZD6738] (first compound max 1 µM, 7x7, partner max 10 µM) = 0.869

Provide combination Emax value for the following molecule: CN(CCO)CC[C@H](CSc1ccccc1)Nc1ccc(S(=O)(=O)NC(=O)c2ccc(N3CCC([C@@H](O)c4ccccc4-c4ccc(Cl)cc4)CC3)cc2)cc1S(=O)(=O)C(F)(F)F [AZD4320] + CN(C)CCCOc1ccc(-c2ccc3ncc4c(c3c2)n(C2CCOCC2)c(=O)n4C)cn1 [AZD0156] (first compound max 1 µM, 7x7, partner max 1 µM)
0.098

###

Test system: EMC-BAC-2 (Non-Small Cell Lung Carcinoma)
procedure.details: combination Emax (second highest fraction inhibited in the dose matrix, 72 h); higher = more inhibition; extreme values may be limits of the assay
Where combination Emax equals or exceeds 0.5, the correct label is true; where it does not, the label is false.

• Cc1c2c(nn1C)CSCc1cc(n(C)n1)CSc1cc(c3ccccc3c1)OCCCc1c(C(=O)O)n(C)c3c-2c(Cl)ccc13 [AZD5991] + CN(C)CCCOc1ccc(-c2ccc3ncc4c(c3c2)n(C2CCOCC2)c(=O)n4C)cn1 [AZD0156] (first compound max 1 µM, 7x7, partner max 1 µM) = true
• Cc1cc2ncnn2cc1Nc1ncc2c(n1)n(C1CCOCC1)c(=O)n2C [AZD7648] + C=CCn1c(=O)c2cnc(Nc3ccc(N4CCN(C)CC4)cc3)nc2n1-c1cccc(C(C)(C)O)n1 [AZD1775] (first compound max 10 µM, partner max 1 µM) = false

We next turn to a different compound, shown below.
Kindly determine if combination Emax recorded for CC1(C)CCC(CN2CCN(c3ccc(C(=O)NS(=O)(=O)c4ccc(NCC5CCOCC5)c([N+](=O)[O-])c4)c(Oc4cnc5[nH]ccc5c4)c3)CC2)=C(c2ccc(Cl)cc2)C1 [Venetoclax] + Cc1cc2ncnn2cc1Nc1ncc2c(n1)n(C1CCOCC1)c(=O)n2C [AZD7648] (first compound max 1 µM, 7x7, partner max 10 µM) is above or exactly 0.5.
false
